Tested on: SF-268 CNS
Assay: NCI tumour cell line growth inhibition, 48 h; in the data active = GI50 below about 0.43 µM; inactive = the rest
Outcomes: 1 (active), 0 (inactive)

- molecule: "C1=C2CNCC3=Cc4ccc5ccccc5c4OC23Oc2c1ccc1ccccc21"
  assigned-class: 0
- molecule: "O=C(/C=C/c1cn(-c2ccccc2)nc1-c1ccc([N+](=O)[O-])cc1)c1ccc(Cl)cc1"
  assigned-class: 0
- molecule: "COc1ccc2c(c1)nc1n2C(c2ccc(F)cc2)SC1 (stereo not given)"
  assigned-class: 0
- molecule: "NC(=O)c1cc(I)ccc1NC(=O)COc1ccccc1"
  assigned-class: 0
- molecule: "O=C(Nc1ccccc1O)c1ccc(CNC(=O)c2ccsc2Nc2ccnc(C(F)(F)F)c2)cc1"
  assigned-class: 0
- molecule: "O=C(Cc1ccc(/C=C/C(=O)c2ncc[nH]2)cc1)Nc1ccc(C(F)(F)F)cc1"
  assigned-class: 0
- molecule: "CCc1cccc(CC)c1/C=C/c1cncc(C(=O)NC)c1"
  assigned-class: 0
- molecule: "COc1ccc(C(=O)C[C@]2(O)C(=O)Nc3c(Cl)ccc(Cl)c32)cc1"
  assigned-class: 0
- molecule: "Fc1cc(-c2nnc3n2N=C(c2ccc(Cl)cc2Cl)CS3)c(Cl)cc1Cl"
  assigned-class: 0
- molecule: "CN(C)C/C=C/C(=O)Nc1ccc(C(=O)N2CCC[C@@H](Nc3ncc(Cl)c(-c4c[nH]c5ccccc45)n3)C2)cc1"
  assigned-class: 1
- molecule: "Cc1ccc(-n2c3c(c4c(CN5CCOCC5)c(O)ccc42)CCc2ccccc2C3=O)cc1"
  assigned-class: 0
- molecule: "CN(C)C(=O)SC1=C(c2c(Cl)cccc2Cl)C(=O)c2ccccc21"
  assigned-class: 0
- molecule: "CN(C)CCCC1(c2ccc(F)cc2)OCc2cc(-c3cncc4ccccc34)ccc21 (stereo not given)"
  assigned-class: 0
- molecule: "CC(C)(CO)N=Cc1ccccc1[O-].CC(C)(CO)N=Cc1ccccc1[O-].[Co+2]"
  assigned-class: 0
- molecule: "c1ccc(CC(NCCNC(Cc2ccccc2)c2ccccc2)c2ccccc2)cc1 (stereo not given)"
  assigned-class: 0

====

Item-by-item account of TGI
Test system: M14 melanoma
Experiment: NCI tumour cell line growth inhibition, 48 h

- compound: "O=C(/C=C/c1ccco1)c1cccc(C(=O)/C=C/c2ccco2)n1"
  TGI: "> 96.3 µM"
- compound: "CN(C)CCCC1(c2ccc(F)cc2)OCc2cc(-c3cncc4ccccc34)ccc21 (stereo unspecified)"
  TGI: "3.77 µM"
- compound: "NC(=S)N/N=C\\CC(O)(C(F)(F)F)C(F)(F)F"
  TGI: "> 10 µM"
- compound: "O=C(O)Cn1ccnc1[N+](=O)[O-]"
  TGI: "> 100 µM"
- compound: "O=P(O)(O)CN1CCNCCN(CP(=O)(O)O)CCNCC1"
  TGI: "> 100 µM"
- compound: "C/C(=N/O)c1ccc2c(c1)C(=NO)c1cc(/C(C)=N/O)ccc1-2"
  TGI: "31.2 µM"
- compound: "CCN1C(=O)CS/C1=N/NC(=O)C(O)(c1ccccc1)C1C=CC=CC1 (stereo unspecified)"
  TGI: "> 10 µM"
- compound: "COc1ccc2cc(-c3c(-c4ccncc4)nc(-c4ccc(S(C)=O)cc4C)n3C)ccc2c1 (stereo unspecified)"
  TGI: "> 25 µM"
- compound: "Cc1n(Cc2ccc3ccccc3c2)c(Cl)c(Cl)[n+]1Cc1ccc2ccccc2c1"
  TGI: "3.99 µM"
- compound: "CC1=C2C(=O)c3ccccc3C(=O)[C@H]2C[C@@H](N2CCCCCC2=O)O1"
  TGI: "28.8 µM"
- compound: "O=C(O)C1C2C=CC(O2)C1C(=O)Nc1ncccn1 (stereo unspecified)"
  TGI: "> 100 µM"
- compound: "CCCCCCCCCCCCCCCCOCC(Cl)COP(=O)(O)OP(=O)(O)OCC1OC(n2cnc3c(N)ncnc32)C(O)C1O (stereo unspecified)"
  TGI: "> 100 µM"
- compound: "O=[N+]([O-])/C=C/c1cn(CCCCCn2cc(/C=C/[N+](=O)[O-])c3ccccc32)c2ccccc12"
  TGI: "15.1 µM"
- compound: "COC(=O)c1ccc(/C=C2\\CCc3ccccc3C2=O)cc1"
  TGI: "> 100 µM"
- compound: "Nc1ccn([C@@H]2C(F)=C(CO)[C@@H](O)[C@H]2O)c(=O)n1"
  TGI: "> 100 µM"
- compound: "C/C(=N\\n1c(N)c(C#N)c(-c2ccc(Cl)cc2)c(C#N)c1=O)c1ccncc1"
  TGI: "> 100 µM"
- compound: "c1ccc([P+](c2ccccc2)(c2ccccc2)c2ccc([P+](c3ccccc3)(c3ccccc3)c3ccccc3)cc2)cc1"
  TGI: "> 100 µM"
- compound: "CC(C)(C)CC(C)(C)c1ccc(OCCOCC[N+](C)(C)Cc2ccccc2)cc1"
  TGI: "6.11 µM"
- compound: "Cc1cc(S(=O)(=O)O)c(NC(=O)c2oc3cc(O)ccc3c(=O)c2C)cc1Cl"
  TGI: "> 100 µM"
- compound: "CC(=O)OCCC(O[Si](c1ccccc1)(c1ccccc1)C(C)(C)C)C(C)(C)O (stereo unspecified)"
  TGI: "> 100 µM"
- compound: "O=C(CCN1CCCC1)Nc1ccc2c(Nc3ccccc3)c3ccccc3nc2c1"
  TGI: "2.69 µM"

====

System: HCT-15 colon
Assay: NCI tumour cell line growth inhibition, 48 h
Measured TGI accompanies every entry in the list below.

- compound: "NC(=S)N/N=C\\CC(O)(C(F)(F)F)C(F)(F)F"
  TGI: "> 10 µM"
- compound: "CCOC(=O)/C(C#N)=C/N(CC)/N=C/c1ccccc1"
  TGI: "> 100 µM"
- compound: "Cc1ccccc1NC(=O)C(=O)CC(=O)c1ccc([N+](=O)[O-])cc1"
  TGI: "> 100 µM"
- compound: "CC(C)(CO)N=Cc1ccccc1[O-].CC(C)(CO)N=Cc1ccccc1[O-].[Co+2]"
  TGI: "> 100 µM"
- compound: "COc1ccc(-c2c3ccccc3c(-c3ccc(OCCCCCBr)cc3)c3ccccc23)cc1"
  TGI: "> 100 µM"
- compound: "C[C@@]12CCCC(=O)N1[C@@H](CO)C(c1ccccc1)O2 (stereo not given in full)"
  TGI: "> 100 µM"
- compound: "Cc1cc(=O)oc2cc(OCCn3c(C)nn(-c4ccc(Cl)cc4)c3=O)ccc12"
  TGI: "> 100 µM"
- compound: "COc1cc2cc(Oc3ccc(NC(=O)c4cccc5c4OCCO5)cc3)c(C)nc2cc1OC"
  TGI: "> 100 µM"
- compound: "COc1ccc2[nH]c3c(=O)[nH]ncc3c2c1"
  TGI: "> 100 µM"
- compound: "Cc1ccc(/C=C2\\CN(C)CC3C2=NC(=S)NC3c2ccc(C)cc2)cc1 (stereo not given)"
  TGI: "> 100 µM"

====

Test system: SF-268 CNS
Assay: NCI tumour cell line growth inhibition, 48 h
Recorded TGI values for a group of compounds are listed next.

- compound: "COC(=O)C(C(=O)C(=O)NC1Nc2ccc(C)cc2S1)c1nc2ccc(Cl)cc2[nH]c1=O (centres undefined)"
  assay-system: "SF-268 CNS"
  TGI: "> 100 µM"
- compound: "Cn1c(=O)sc2cc(C(=S)N3CCOCC3)ccc21"
  assay-system: "SF-268 CNS"
  TGI: "> 100 µM"
- compound: "CCN1C(=O)CS/C1=N/NC(=O)C(O)(c1ccccc1)C1C=CC=CC1 (centres undefined)"
  assay-system: "SF-268 CNS"
  TGI: "> 10 µM"
- compound: "CCc1cccc(CC)c1/C=C/c1cncc(C(=O)NC)c1"
  assay-system: "SF-268 CNS"
  TGI: "> 25 µM"
- compound: "CC[C@@]1(O)C(=O)OCc2c1cc1n(c2=O)Cc2cc3c(N)cccc3nc2-1"
  assay-system: "SF-268 CNS"
  TGI: "3.06 µM"
- compound: "COC(=O)c1ccc(/C=C2\\CCc3ccccc3C2=O)cc1"
  assay-system: "SF-268 CNS"
  TGI: "> 100 µM"
- compound: "O=C(OCc1ccccc1C1CSCSC1)c1cc(C(=O)OCc2ccccc2C2CSCSC2)c(C(=O)OCc2ccccc2C2CSCSC2)cc1C(=O)OCc1ccccc1C1CSCSC1"
  assay-system: "SF-268 CNS"
  TGI: "> 100 µM"
- compound: "CC(=O)Nc1ccc(C(=O)N2N=C(C)/C(=C/c3ccc(O)cc3)C2=O)cc1"
  assay-system: "SF-268 CNS"
  TGI: "> 100 µM"
- compound: "CCOCNc1ccc(N2C(=O)/C(=C/c3ccc(N(CC)CC)cc3)N=C2c2ccccc2)cc1"
  assay-system: "SF-268 CNS"
  TGI: "> 100 µM"

====

System: SF-268 CNS
Experiment: NCI tumour cell line growth inhibition, 48 h

- molecule: "CN(C)CCCC1(c2ccc(F)cc2)OCc2cc(-c3cncc4ccccc34)ccc21 (centres undefined)"
  TGI: "13.9 µM"
- molecule: "CC(=O)O[C@H]1C(=O)N(c2cc3c4ccccc4ccc3c3ccccc23)[C@@H]1c1ccccc1"
  TGI: "> 100 µM"
- molecule: "Nc1c(N=Nc2ccc(-c3ccc(N=Nc4c(O)ccc5cc(S(=O)(=O)O)cc(S(=O)(=O)O)c45)cc3)cc2)c(S(=O)(=O)O)cc2cc(S(=O)(=O)O)c(N=Nc3ccccc3)c(O)c12"
  TGI: "> 100 µM"
- molecule: "O=C(O)C1C2C=CC(O2)C1C(=O)Nc1ncccn1 (centres undefined)"
  TGI: "> 100 µM"
